Target: T1, human CD24 (human, UniProt P25063 27-59, heavily glycosylated, GPI-anchored (as described in the background))
T1 construct: whole, on cells; Target of all cell-based FACS assays; also called hCD24; Cluster of differentiation 24
T1 chain (looked up): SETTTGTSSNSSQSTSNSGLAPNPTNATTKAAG
Test: FACS, MDA-MB-468 cells
Use 40000 as the dividing line for FACS MFI, with the line itself on the Fulfilled side and lower values as Not fulfilled.

binder	class assignment
110D4G4 (antibody, V domains shown, mouse monoclonal antibody; also called mAb-110D4G4) VH: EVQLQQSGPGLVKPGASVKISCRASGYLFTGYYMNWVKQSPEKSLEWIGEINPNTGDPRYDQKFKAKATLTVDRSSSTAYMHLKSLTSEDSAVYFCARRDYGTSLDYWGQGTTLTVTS VL: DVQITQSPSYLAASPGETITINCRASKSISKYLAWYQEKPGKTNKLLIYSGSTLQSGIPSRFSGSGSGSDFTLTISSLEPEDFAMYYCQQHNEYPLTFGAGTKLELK	Fulfilled
73H5-1G2 (antibody, V domains shown, mouse monoclonal antibody) VH: QVQLKQSGPGLVQPSQSLSITCTVSGFSLTNYGVHWIRQSPGKGLEWLGVIWRGGSTDYNAAFMSRLSITKDNSKSQVFFQMNSLQAADTAIYYCANNYGYDCFAYWGQGTLVTVSA VL: DVQITQSPSYLAASPGETITINCRASKSIIKYLAWYQEKPGKTNKLLIYSGSTLQSGIPSRFSGSGSGTDFTLTITSLEPEDFAMYYCQQHNEYPLTFGAGTRLELK	Not fulfilled
SN3 (antibody, V domains shown) VH: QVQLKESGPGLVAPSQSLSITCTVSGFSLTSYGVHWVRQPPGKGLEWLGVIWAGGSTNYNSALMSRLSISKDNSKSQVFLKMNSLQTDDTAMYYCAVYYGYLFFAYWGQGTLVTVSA VL: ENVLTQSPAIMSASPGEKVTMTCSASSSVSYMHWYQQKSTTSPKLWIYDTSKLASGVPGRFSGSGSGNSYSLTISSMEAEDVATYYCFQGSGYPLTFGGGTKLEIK	Not fulfilled
100F2E3 (antibody, V domains shown, mouse monoclonal antibody) VH: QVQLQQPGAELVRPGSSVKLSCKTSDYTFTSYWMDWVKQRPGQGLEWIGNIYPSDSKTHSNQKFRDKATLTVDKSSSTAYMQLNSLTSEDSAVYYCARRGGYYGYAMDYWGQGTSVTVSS VL: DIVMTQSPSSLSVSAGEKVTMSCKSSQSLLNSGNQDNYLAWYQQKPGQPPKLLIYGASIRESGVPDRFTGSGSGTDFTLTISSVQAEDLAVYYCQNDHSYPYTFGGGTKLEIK	Fulfilled

Turning to the following binder.
Prompt line: Check if FACS MFI >= 40000 (inclusive). Item: 58F10-1F6 (antibody, V domains shown, mouse monoclonal antibody) VH: EVQLRQSGPELVKPGAAVKISCKASGYSFTGYHMNWVKQSPEKSLEWIGEINPITSGITYNQIFKAKATLTVDKSSSTAYLQLKSLTSEDSAVYYCTRRDYGTSLDYWGQGTTLTVSS VL: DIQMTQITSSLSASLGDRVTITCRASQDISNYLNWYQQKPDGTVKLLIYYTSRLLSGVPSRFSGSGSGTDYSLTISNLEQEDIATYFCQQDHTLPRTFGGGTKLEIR
Response line: Fulfilled
